Target: T1, SNTB1, Q13884
T1 sequence (Q13884 107-205, limits assumed, looked up): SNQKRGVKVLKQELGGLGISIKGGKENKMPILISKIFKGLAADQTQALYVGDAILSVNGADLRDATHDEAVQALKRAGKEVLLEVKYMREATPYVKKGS
Test: holdup assay
Set-up: key: below the threshold = too weak to quantify, mostly under pKd 3.1 to 4
Conditions: plain residues with an end cap or a label only (N-terminal biotin on a linker: ahx)
A collection of binders and their measured pKd
MEASUREMENT_LABEL: pKd

* YNSFLSVTTV [PDZRN3, Q9UPQ7] | 3.72
* AKPQPVDSWV [ARVCF, O00192] | 3.5
* HSATSVHTSV [MTMR1, Q13613] | 3.78
* KDECVIATEV [DLL1, O00548] | 3.64
* ADENEQVSAV [RAPGEF6, Q8TEU7] | 3.71
